Cited source: the Kinase Knowledgebase extract (Sharma et al. 2016)

TESTED_SYSTEM: UniProt:P24941
PROTOCOL_DESCRIPTION: Enzyme Assay
pIC50: −log10 of the molar value.
PARAMETER_MEASURED: pIC50

>>> quantitative_readout("CCOC(=O)c1cnc2c(c1)/C(=C/Nc1ccc3ncccc3c1)C(=O)N2")
6.26
>>> quantitative_readout("Cc1cc(=O)[nH]n1-c1ccc(N/C=C2\\C(=O)Nc3ccc4ncsc4c32)cc1")
7.52
>>> quantitative_readout("O=C1Nc2nc(Cl)ccc2/C1=C/Nc1ccc2cn[nH]c2c1")
6.26
>>> quantitative_readout("O=C1Nc2ncc(-c3ccsc3)cc2/C1=C/Nc1ccc2cn[nH]c2c1")
6.26

(I) O=C1Nc2ncc(Br)cc2/C1=C/Nc1ccc2ncccc2c1
(II) NS(=O)(=O)c1ccc(N/C=C2\C(=O)Nc3ncc(-c4ccccc4)cc32)cc1
// select label with min value of measured pIC50 from [ I , II ] Give the chosen item's label as your response.
II
(II: 5.26, I: 7.26)
